Target: recombinant human SAE enzyme (Homo sapiens)
Sequence (Q9UBT2 whole entry): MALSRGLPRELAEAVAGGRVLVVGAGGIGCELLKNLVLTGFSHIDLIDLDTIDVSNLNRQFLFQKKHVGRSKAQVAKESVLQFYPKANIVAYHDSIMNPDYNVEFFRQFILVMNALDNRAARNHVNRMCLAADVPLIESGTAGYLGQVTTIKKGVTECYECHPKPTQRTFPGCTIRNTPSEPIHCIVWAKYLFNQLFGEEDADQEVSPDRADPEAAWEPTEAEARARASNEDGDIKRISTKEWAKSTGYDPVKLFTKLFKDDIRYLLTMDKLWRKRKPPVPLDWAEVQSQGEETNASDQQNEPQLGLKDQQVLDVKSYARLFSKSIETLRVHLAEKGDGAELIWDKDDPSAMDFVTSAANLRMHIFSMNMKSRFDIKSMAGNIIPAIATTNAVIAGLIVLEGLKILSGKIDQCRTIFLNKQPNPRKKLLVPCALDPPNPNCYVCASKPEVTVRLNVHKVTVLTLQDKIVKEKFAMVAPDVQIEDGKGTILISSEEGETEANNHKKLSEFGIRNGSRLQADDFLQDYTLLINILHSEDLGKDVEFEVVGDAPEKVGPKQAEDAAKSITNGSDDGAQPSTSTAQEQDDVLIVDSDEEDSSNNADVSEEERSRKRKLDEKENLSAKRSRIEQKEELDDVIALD
Sequence (Q9UBE0 whole entry partner): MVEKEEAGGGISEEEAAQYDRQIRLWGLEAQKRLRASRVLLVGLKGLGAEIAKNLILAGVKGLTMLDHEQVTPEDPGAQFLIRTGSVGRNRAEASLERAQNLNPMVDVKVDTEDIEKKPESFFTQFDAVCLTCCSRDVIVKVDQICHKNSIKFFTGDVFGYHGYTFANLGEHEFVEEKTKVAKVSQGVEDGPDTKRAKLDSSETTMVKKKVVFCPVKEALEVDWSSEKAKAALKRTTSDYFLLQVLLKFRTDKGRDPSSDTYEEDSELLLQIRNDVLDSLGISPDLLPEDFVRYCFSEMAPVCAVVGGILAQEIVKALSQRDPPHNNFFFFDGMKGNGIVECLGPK
Test: SAE HTRF Enzyme Assay
Type: biochemical
Settings: compound concentration 0.111 μM; read-out: Percent Inhibition
Classify by measured inhibition at 0.111 µM: yes (1) if it is equal to or exceeds 70%, no (0) if it is smaller.

{"COMPOUND": "NS(=O)(=O)OC[C@H]1C[C@@H](Nc2ncncc2C(=O)c2ccn(Cc3ccccc3C(F)(F)F)n2)C[C@@H]1O [Compound I-226]", "ANSWER LABEL": "yes (1)"}
{"COMPOUND": "NS(=O)(=O)OC[C@H]1C[C@@H](Nc2ncncc2C(=O)c2nn(Cc3ccccc3)cc2Cl)[C@H](O)[C@@H]1O [Compound I-139]", "ANSWER LABEL": "yes (1)"}
{"COMPOUND": "NS(=O)(=O)OC[C@H]1C[C@@H](Nc2ncncc2C(=O)c2ccn(CC(=O)N3CCCC3)n2)[C@@H](F)[C@@H]1O [Compound I-19]", "ANSWER LABEL": "no (0)"}
{"COMPOUND": "C=CCn1ccc(C(=O)c2cncnc2N[C@@H]2C[C@H](COS(N)(=O)=O)[C@@H](O)C2)c1 [Compound I-291]", "ANSWER LABEL": "yes (1)"}
{"COMPOUND": "NS(=O)(=O)OC[C@H]1C[C@@H](Nc2ncncc2C(=O)c2ccn(Cc3ccnc(C(F)(F)F)c3)n2)C[C@@H]1O [Compound I-53]", "ANSWER LABEL": "yes (1)"}
{"COMPOUND": "NS(=O)(=O)OC[C@H]1C[C@@H](Nc2ncncc2C(=O)c2ccn(CC3=CCCOC3)n2)C[C@@H]1O [Compound I-145]", "ANSWER LABEL": "no (0)"}

Origin of values: patent US9695154B2
